- ASSAYED_TARGET: T1, HCV Core1-169 (HCV-1, UniProt P26664 1-169)
- T1 construct: also called Solid Phase HCV Core
- T1 sequence: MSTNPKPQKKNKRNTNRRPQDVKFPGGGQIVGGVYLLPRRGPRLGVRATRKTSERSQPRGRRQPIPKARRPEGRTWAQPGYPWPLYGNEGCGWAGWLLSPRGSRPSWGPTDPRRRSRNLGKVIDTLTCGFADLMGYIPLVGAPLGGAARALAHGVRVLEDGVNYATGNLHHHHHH
- ASSAY_SUMMARY: sandwich EIA, capture 208A-207-271
Strictly below 0.2 OD in OD492: 1.0. Otherwise: 0.0.

Past entries and their recorded results:
HCV 208B-612 (antibody, V domains shown) VH: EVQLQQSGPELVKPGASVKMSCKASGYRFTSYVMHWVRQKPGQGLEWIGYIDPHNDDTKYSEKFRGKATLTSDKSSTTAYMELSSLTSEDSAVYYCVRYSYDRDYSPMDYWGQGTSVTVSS VL: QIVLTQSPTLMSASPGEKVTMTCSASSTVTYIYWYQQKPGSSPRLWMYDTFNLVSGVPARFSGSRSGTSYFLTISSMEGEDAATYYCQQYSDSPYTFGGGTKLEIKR
0.0
HCV 208A-557 (antibody, V domains shown) VH: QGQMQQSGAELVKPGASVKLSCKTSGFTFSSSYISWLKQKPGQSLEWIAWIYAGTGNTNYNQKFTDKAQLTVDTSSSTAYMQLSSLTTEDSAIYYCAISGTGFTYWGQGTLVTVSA VL: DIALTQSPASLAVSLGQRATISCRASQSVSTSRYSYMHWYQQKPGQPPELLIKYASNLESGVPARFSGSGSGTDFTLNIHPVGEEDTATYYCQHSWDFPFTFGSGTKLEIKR
1.0
HCV 208A-741 (antibody, V domains shown) VH: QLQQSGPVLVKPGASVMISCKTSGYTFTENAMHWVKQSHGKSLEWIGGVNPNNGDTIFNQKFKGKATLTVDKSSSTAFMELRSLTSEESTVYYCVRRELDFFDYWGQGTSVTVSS VL: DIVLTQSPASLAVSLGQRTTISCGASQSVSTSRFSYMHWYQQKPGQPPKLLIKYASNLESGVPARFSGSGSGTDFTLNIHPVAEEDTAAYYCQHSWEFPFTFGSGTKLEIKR
0.0

Query :: Take the binder HCV 208A-207 (antibody, V domains shown) VH: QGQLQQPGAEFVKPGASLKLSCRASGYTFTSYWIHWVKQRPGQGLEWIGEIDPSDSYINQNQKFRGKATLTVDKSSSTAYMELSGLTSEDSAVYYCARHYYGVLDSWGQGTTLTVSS VL: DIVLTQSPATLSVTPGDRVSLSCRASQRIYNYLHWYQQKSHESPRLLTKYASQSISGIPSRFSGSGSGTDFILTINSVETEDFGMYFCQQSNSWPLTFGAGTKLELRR and say whether its OD492 is less than 0.2 OD.
Result :: 0.0
